- tested.on: JAK2 (JH1 domain) (Homo sapiens (Human))
- Sequence (O60674 849-1124): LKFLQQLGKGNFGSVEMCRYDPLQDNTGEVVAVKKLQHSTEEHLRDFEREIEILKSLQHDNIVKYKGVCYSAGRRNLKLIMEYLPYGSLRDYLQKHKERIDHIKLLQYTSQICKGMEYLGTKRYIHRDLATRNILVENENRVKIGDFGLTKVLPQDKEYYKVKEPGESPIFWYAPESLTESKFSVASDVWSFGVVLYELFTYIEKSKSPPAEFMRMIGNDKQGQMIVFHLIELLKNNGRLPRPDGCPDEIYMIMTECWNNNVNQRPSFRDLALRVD
- assay.overview: JAK2 JH1 domain binding assay (KINOMEscan)
pKd: −log10 of the molar value.
Provide the recorded pKd for the entries that follow.

>  <cpd.smiles>
[2H]C([2H])([2H])CC(=O)c1cnc(Nc2cccc(C#N)n2)cc1Nc1cccc(-c2ncn(C([2H])([2H])[2H])n2)c1OC

>  <pKd>
< 5.00

$$$$
>  <cpd.smiles>
[2H]C([2H])([2H])CC(=O)c1cnc(NC(=O)C2CC2)cc1Nc1nccc(-c2ncn(C([2H])([2H])[2H])n2)c1OC

>  <pKd>
5.00 to 6.00

$$$$
>  <cpd.smiles>
[2H]C([2H])([2H])CC(=O)c1cnc(Nc2cccc(C#N)n2)cc1Nc1nccc(-c2ncn(C([2H])([2H])[2H])n2)c1OC

>  <pKd>
< 5.00

$$$$
>  <cpd.smiles>
CC(C)(O)c1ccc(Nc2cc(Nc3ncccc3S(C)(=O)=O)c(C(=O)C3CC3)cn2)nc1F

>  <pKd>
5.00 to 6.00

$$$$
>  <cpd.smiles>
[2H]C([2H])([2H])CC(=O)c1cnc(Nc2ccc(C(C)(C)O)c(F)n2)cc1Nc1cccc(-c2ncn(C([2H])([2H])[2H])n2)c1OC

>  <pKd>
6.00 to 7.00

$$$$

Hi team, please reply with pKd for each item in this list.
1. CCC(=O)c1cnc(NC(=O)C2CC2)cc1Nc1nccc(-c2ncn(C)n2)c1OC
2. [2H]C([2H])([2H])NC(=O)c1nnc(NC(=O)N2CC(C)(C)C2)cc1Nc1cccc(-c2ncn(C)n2)c1OC
3. [2H]C([2H])([2H])NC(=O)c1nnc(N2CCN(C(C)C)C2=O)cc1Nc1nccc(-c2ncn(C)n2)c1OC
4. [2H]C([2H])([2H])CC(=O)c1cnc(Nc2ccc(C(C)(C)O)c(F)n2)cc1Nc1nccc(-c2ncn(C([2H])([2H])[2H])n2)c1OC
5. COc1c(-c2ncn(C)n2)ccnc1Nc1cc(NC(=O)C2CC2)ncc1C(=O)C1CC1

Outgoing:
1: 6.00 to 7.00; 2: 5.00 to 6.00; 3: < 5.00; 4: 6.00 to 7.00; 5: 5.00 to 6.00
